test: NCI Yeast Anticancer Drug Screen. Data for the rad50 strain (AID 155); settings: S. cerevisiae rad50 strain growth inhibition; at 33.0 µM; stronger effect = higher value
This is part of a sample that, as a whole, favours compounds with a hit. Of some 79,000 tested, about 15% had one in any assay.
Output yes for growth inhibition not less than 20%; output no otherwise.

>>> group("Cc1c(C(=O)C(=O)c2ccccc2)c(C)c(C(=O)C(=O)c2ccccc2)c(C)c1C(=O)C(=O)c1ccccc1")
"no"
>>> group("Cc1ccc(Nc2nc3c(=O)n(C)c(=O)n(C)c3nc2Nc2ccc(C)cc2)cc1")
"no"
>>> group("CO[C@H]1C[C@](C)(O)Cc2cc3c(c(O)c21)C(=O)c1c(O)cc2c(c1C3=O)O[C@@H]1O[C@@]2(C)[C@H](O)[C@@H](N(C)C)[C@@H]1O")
"yes"
>>> group("C(CCSC1=NCCN1)CSC1=NCCN1 (tested in a mixture with another compound)")
"yes"
>>> group("CCOc1ccc2c(c1)c(CC(=O)O)cn2C")
"yes"
>>> group("Cc1cc(I)ccc1N")
"yes"
>>> group("Cc1cc(CO)c(O)c(CNCc2cc(C)cc(CO)c2O)c1")
"no"
>>> group("O=C1CSC(/C=C/c2ccccc2)N1c1ccc(-c2ccc(-n3c(-c4ccccc4)nc4ccccc4c3=O)cc2)cc1 (configuration not stated)")
"yes"
>>> group("COc1cccc2nc3ccccc3nc12")
"yes"
>>> group("CC1=C(C)Cc2c(O)ccc(O)c2C1")
"yes"
>>> group("C=CC(C)(O)CCC1C(=C)C(O)CC2C(C)(C)CCCC12C (configuration not stated)")
"yes"
>>> group("CCCCN(CCCC)CCSc1ccc(Cl)cc1")
"yes"
>>> group("COc1ccc(-c2cn(-c3ccc(I)cc3)c3ncnc(N)c23)cc1")
"no"
>>> group("CN(CCc1ccccn1)c1ccc2c(c1)Cc1ccccc1-2")
"yes"
>>> group("CNC(=O)OCc1c(COC(=O)NC)c(-c2ccc(-c3ccccc3)cc2)n(C)c1C")
"no"
>>> group("Clc1cccc(C(Nc2nncs2)Nc2nncs2)c1Cl")
"yes"
>>> group("O=C(N=Nc1cc(Cl)ccc1Cl)NNc1cc(Cl)ccc1Cl")
"no"
>>> group("COc1ccc(NC(=S)N/N=C(\\c2ccccc2)c2ccccn2)cc1")
"yes"
>>> group("COC(=O)CCNc1c2ccccc2nc2cccc([N+](=O)[O-])c12")
"yes"
>>> group("S=C(N/N=C/c1ccccn1)Nc1ccc(Cl)cc1")
"no"
>>> group("CCCC/C=C/C(CC)(C(=O)OCC)C(=O)OCC")
"no"
>>> group("CCS(=O)(=O)c1ccc(/C=C/C=N/NC(=S)NCC(C)C)cc1")
"no"
